Reference source: patent US11596670B2

- ASSAY PROCEDURE: Pharmacokinetic study of oral vs. intra-cecal administration of tacrolimus (Example 13)
- MEASUREMENT SETUP: female, Yorkshire-Cross, pig, in vivo, 0.09 mg/kg

COMPOUND	AUC(0-t) / ng·h/mL
C=CC[C@@H]1/C=C(\C)C[C@H](C)C[C@H](OC)[C@H]2O[C@@](O)(C(=O)C(=O)N3CCCC[C@H]3C(=O)O[C@H](/C(C)=C/[C@@H]3CC[C@@H](O)[C@H](OC)C3)[C@H](C)[C@@H](O)CC1=O)[C@H](C)C[C@@H]2OC [tacrolimus]	130

----------
- ASSAY PROCEDURE: Tissue, plasma, rectal sample and GI content pharmacokinetics of tacrolimus, oral vs. intra-cecal ingestible device (Example 10)
- Design: species or system Yorkshire-Cross farm swine
- MEASUREMENT SETUP: female, Yorkshire-Cross, pig, in vivo; IC capsule, high (0.09 mg/kg) dose (first value)

MOLECULE SMILES	Cmax, ng/mL
C=CC[C@@H]1/C=C(\C)C[C@H](C)C[C@H](OC)[C@H]2O[C@@](O)(C(=O)C(=O)N3CCCC[C@H]3C(=O)O[C@H](/C(C)=C/[C@@H]3CC[C@@H](O)[C@H](OC)C3)[C@H](C)[C@@H](O)CC1=O)[C@H](C)C[C@@H]2OC	9.2
